biological target: recombinant guanylate cyclase reporter cell line (Rattus norvegicus, UniProt P20595); construct: expressed in transfected cells; host or cells: CHO reporter cell line; assay: sGC-activating activity in the CHO reporter cell in vitro; assay type: cell-based
Sequence (P20595 whole entry): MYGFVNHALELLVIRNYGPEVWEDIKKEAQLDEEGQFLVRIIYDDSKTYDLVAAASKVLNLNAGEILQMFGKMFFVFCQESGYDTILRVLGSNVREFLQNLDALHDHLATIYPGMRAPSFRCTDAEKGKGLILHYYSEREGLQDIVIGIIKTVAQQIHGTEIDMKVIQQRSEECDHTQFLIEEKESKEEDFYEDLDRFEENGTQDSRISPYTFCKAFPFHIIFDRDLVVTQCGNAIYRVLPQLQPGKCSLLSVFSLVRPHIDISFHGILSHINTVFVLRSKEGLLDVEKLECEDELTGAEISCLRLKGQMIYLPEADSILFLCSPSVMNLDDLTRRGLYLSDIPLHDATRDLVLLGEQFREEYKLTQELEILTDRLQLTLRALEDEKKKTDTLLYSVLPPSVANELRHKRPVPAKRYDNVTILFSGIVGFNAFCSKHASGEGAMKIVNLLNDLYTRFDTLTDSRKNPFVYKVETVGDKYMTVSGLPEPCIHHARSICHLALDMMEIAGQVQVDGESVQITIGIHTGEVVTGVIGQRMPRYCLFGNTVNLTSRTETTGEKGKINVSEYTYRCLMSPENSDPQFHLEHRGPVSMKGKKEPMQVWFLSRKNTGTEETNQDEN
Sequence (P19686 whole entry partner): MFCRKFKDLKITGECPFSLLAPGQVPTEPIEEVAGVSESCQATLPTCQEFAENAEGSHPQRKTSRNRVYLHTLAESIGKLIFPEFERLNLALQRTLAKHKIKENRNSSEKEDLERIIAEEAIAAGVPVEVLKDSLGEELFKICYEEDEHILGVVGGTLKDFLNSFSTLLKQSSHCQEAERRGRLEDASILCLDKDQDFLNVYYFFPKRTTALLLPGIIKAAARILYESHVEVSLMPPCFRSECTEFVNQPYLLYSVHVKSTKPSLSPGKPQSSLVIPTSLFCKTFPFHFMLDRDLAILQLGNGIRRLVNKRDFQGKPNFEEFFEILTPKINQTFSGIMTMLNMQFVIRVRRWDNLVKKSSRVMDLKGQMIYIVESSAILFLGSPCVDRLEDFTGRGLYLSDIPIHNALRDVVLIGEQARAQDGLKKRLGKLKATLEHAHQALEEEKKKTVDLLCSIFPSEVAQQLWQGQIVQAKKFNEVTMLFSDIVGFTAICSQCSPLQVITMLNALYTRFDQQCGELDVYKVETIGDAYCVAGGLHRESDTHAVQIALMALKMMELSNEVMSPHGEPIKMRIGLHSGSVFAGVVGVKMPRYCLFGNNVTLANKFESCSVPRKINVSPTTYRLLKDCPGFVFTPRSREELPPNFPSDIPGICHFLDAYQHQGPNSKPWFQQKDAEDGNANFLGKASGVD
A collection of molecules and their measured MEC (minimum effective concentration), sGC-activating activity in the CHO reporter cell
State the answer as a number, implicitly in nM.

Molecule	Result units	Value observed
O=C(O)CCc1ccc(Cl)c(NC(=O)C(c2ccc(CN3N=C(c4ccccc4)OCC3=O)cc2)C2CCCC2)c1 (stereo not shown) [Example 187]	nM	1
O=C(O)CCc1cc(NC(=O)C(c2ccc(CN3N=C(c4ccccc4)OCC3=O)cc2)C2CCCC2)ccc1F (stereo not shown) [Example 232]	nM	20
O=C(O)c1ccc(CNC(=O)C(c2ccc(Cn3nc(-c4ccc(Cl)cc4)c4ccccc4c3=O)cc2)C2CCCC2)nc1 (racemic) [Example 11]	nM	300

Consider the record given below.
Specify reported MEC (minimum effective concentration), sGC-activating activity in the CHO reporter cell for the molecule shown: CC(C(C(=O)Nc1cccc(CCC(=O)O)c1Cl)c1ccc(CN2N=C(c3ccccc3)OCC2=O)cc1)C(F)(F)F (stereo not shown) [Example 184] 3

====

molecular target: soluble guanylate cyclase (sGC) (Rattus norvegicus, UniProt P20595); experiment: Activating action at the sGC enzyme in vitro (PPi detection, luciferase); conditions: read-out: EC50 (concentration at 50% of maximum efficacy), activating action at the sGC enzyme
Sequence (P20595 whole entry): as the sequence (P20595 whole entry) above
Sequence (P19686 whole entry partner): as the sequence (P19686 whole entry partner) above
Assay readout: pEC50
Please report pEC50 as the negative decimal logarithm of the molar concentration, giving only the number.

Example entries and their recorded answers appear below.
Compound	System tested	pEC50
O=C(Nc1cccc(CC2(C(=O)O)CC2)c1)C(c1ccc(CN2Cc3c(F)cccc3C2=O)cc1)C1CCCC1 (stereo not shown)	soluble guanylate cyclase (sGC) (Rattus norvegicus, UniProt P20595)	7.62
O=C(O)C1Cc2cccc(NC(=O)C(c3ccc(CN4N=C(c5ccccc5)OCC4=O)cc3)C3CCCC3)c2C1 (single isomer, unassigned)	soluble guanylate cyclase (sGC) (Rattus norvegicus, UniProt P20595)	6.49
CC(C(C(=O)Nc1cccc(CC2(C(=O)O)CC2)c1)c1ccc(CN2N=C(c3ccccc3)OCC2=O)cc1)C(F)(F)F (single isomer, unassigned) [Example 166]	soluble guanylate cyclase (sGC) (Rattus norvegicus, UniProt P20595)	8.62

Given the compound O=C(Nc1cc(F)cc(CC2(C(=O)O)CC2)c1)C(c1ccc(CN2N=C(c3ccccc3)OCC2=O)cc1)C1CCCC1 (single isomer, unassigned) , write its reported pEC50. 7.68

====

Below is a list of entries, each paired with its recorded pEC50 value.
target: soluble guanylate cyclase (sGC) (Rattus norvegicus); assay: Activating action at the sGC enzyme in vitro (PPi detection, luciferase); settings: read-out: EC50 (concentration at 50% of maximum efficacy), activating action at the sGC enzyme
# pEC50 is unitless: minus log10 of the molar concentration; print number only

Some compounds with recorded pEC50:
Compound	pEC50
O=C(Nc1cccc(CC2(C(=O)O)CC2)c1F)C(c1ccc(CN2N=C(c3ccccc3)OCC2=O)cc1)C1CCCC1 (centres unmarked) [Example 233]	7.11
O=C(Nc1cccc(CC2(C(=O)O)CC2)c1)[C@H](c1ccc(CN2Cc3c(F)cccc3C2=O)cc1)C1CCCC1 [Example 214]	7.72
CC(C(C(=O)Nc1cccc(CC2(C(=O)O)CC2)c1)c1ccc(Cn2nc(C(F)(F)F)ccc2=O)cc1)C(F)(F)F (single isomer, unassigned) [Example 181]	7.16
CC(C)(Cc1cccc(NC(=O)C(c2ccc(Cn3nc(-c4ccccc4)ccc3=O)cc2)C2CCCC2)c1)C(=O)O (single isomer, unassigned) [Example 138]	6.48

Here's the next entry for you.
Output measured pEC50 for this item: O=C(O)CCc1cccc(NC(=O)C(c2ccc(CN3N=C(c4ccccc4)OCC3=O)cc2)C2CCCC2)c1 (single isomer, unassigned) [Example 103] 6.42
